readoutLabel: melting point

For the compound shown here, `CS(=O)(=O)c1ccc(-c2nc(C(F)(F)F)nc(Cl)c2-c2ccc(F)cc2)cc1` , give the reported melting point.
195 to 197 °C

Next up: `Fc1ccc(-c2nc(C(F)(F)F)nc(Cl)c2-c2ccccc2)cc1`
67 to 68 °C

Next up: `CSc1ccc(-c2c(Cl)nc(Cl)nc2-c2ccccc2)cc1`
88 to 90 °C

---

readoutLabel: melting point

- smilesStr: "CC(=O)NNc1nc(C(F)(F)F)nc(-c2ccc(F)cc2)c1-c1ccccc1"
  melting point: "149 to 153 °C"

For the compound shown here, `Clc1ccc(-c2c(Cl)nc(Cl)nc2-c2ccccc2)cc1` , give the reported melting point.
123 to 125 °C

Next up: `Clc1nc(Cl)c(-c2ccccc2)c(-c2ccccc2)n1`
144 to 146 °C

Next up: `FC(F)(F)c1nc(Cl)c(-c2ccccc2)c(-c2ccccc2)n1`
105 to 107 °C
